# Tested on: A673/TR/shEF
# assay_comment: cell viability (LOESS-normalised, relative to median of negative controls) (log2 ratio); higher = more viable cells (less compound effect), active = hit call of the paper (over 3 MAD below the median)
# test_conditions: 2.5 µM; library screen: screen1; EWS-FLI1 expression: low (doxycycline-induced shRNA knockdown); treatment time: 72 h
Out of some 3,200 compounds screened, about 300 (9.4%) showed activity. The full list was thinned out, with actives kept by preference.
Measured cell viability (log2) determines class: interval 1 (below 0.03), interval 2 (0.03 to below 0.1), interval 3 (0.1 or more)

{"compound": "CC(=O)O[C@H]1C[C@@H](OC(C)=O)C(C)(C)[C@@H]2C[C@@H](OC(C)=O)[C@]3(C)[C@H](CC[C@@]4(C)[C@H](c5ccoc5)OC(=O)[C@H]5O[C@@]534)[C@@]12C", "answer_label": "interval 3"}
{"compound": "CN(C)CCN(Cc1ccccc1)c1ccccn1", "answer_label": "interval 3"}
{"compound": "CC(C)CCCCCOC(=O)COc1ccc(Cl)cc1Cl", "answer_label": "interval 1"}
{"compound": "COc1ccc(OC)c(CN2CCN(Cc3cccnc3)CC2)c1", "answer_label": "interval 1"}
{"compound": "CN([C@@H](Cc1ccc(OS(=O)(=O)c2cccc3cnccc23)cc1)C(=O)N1CCN(c2ccccc2)CC1)S(=O)(=O)c1cccc2cnccc12", "answer_label": "interval 1"}
{"compound": "O=C(O)c1cc2c(Cl)cc(Cl)cc2[nH]1", "answer_label": "interval 2"}
{"compound": "COC(=O)c1c(C)cc(OC(=O)c2c(C)cc(O)c(CO)c2O)c(C)c1O", "answer_label": "interval 2"}
{"compound": "O=C1CC[C@]23/C=C/C(=O)NCCCCNCCCNC(=O)/C=C/c4ccc(c2c4)O[C@@H]3C1", "answer_label": "interval 3"}
{"compound": "CSCCC(NC=O)C(=O)NC(C)C(=O)O (stereo not given)", "answer_label": "interval 3"}
{"compound": "CC(=O)N1CCC[C@H]1C(=O)O", "answer_label": "interval 2"}
